# reported protein stability index; entries follow
# System: Saccharomyces cerevisiae
# assayNotes: protein stability index of tFT-peptide fusion (C-terminal peptide) (PSI (0-1 scale)); higher = more stable (slower turnover);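 further: PSI is a weighted mean of sequencing reads over stability bins, variants kept only with over 10 reads, mCherry proximal and sfGFP distal, peptide attached via GGGS linker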
# conditionDetails: genetic background: wild type; temperature: 30 C

Below, 5 sequences whose answers are already recorded.
* EMGTTMATPCDH | 0.681
* RPSLSRSSLLSP | 0.701
* RLRKEKGKKIQY | 0.697
* YESISGLGHLSG | 0.696
* PPPLASRLLSFL | 0.713

Given the sequence `HHPTQRPRHRLG` , what is its reported protein stability index? 0.683

Entry `LIIRTWEQILSP` : reported protein stability index = ? 0.692

For the sequence `RGRGKAGGETTV` , what protein stability index is on record? 0.686

protein stability index for `SFPAPPSPPPLP` ? 0.702

---

# Test system: Saccharomyces cerevisiae
# assayNotes: protein stability index of tFT-peptide fusion (C-terminal peptide) (PSI (0-1 scale)); higher = more stable (slower turnover)
# conditionDetails: genetic background: wild type; temperature: 37 C
property: protein stability index
API doc: respond with a numeric literal and nothing else, no unit.

See these solved cases before continuing.
• RCRLYLNVVVLC = 0.17
• WLFRCFLFVVGG = 0.436

Consider the sequence `CTLVFLFFDLCS` and give its measured protein stability index. 0.49

---

# Test system: Saccharomyces cerevisiae
# assayNotes: protein stability index of tFT-peptide fusion (C-terminal peptide) (PSI (0-1 scale)); higher = more stable (slower turnover)
# conditionDetails: genetic background: wild type; temperature: 30 C
property: protein stability index
Answer with the value's number alone.

Sample `LILLTVGSPRSG` — what was its protein stability index? 0.686

---

# Test system: Saccharomyces cerevisiae
# assayNotes: protein stability index of tFT-peptide fusion (C-terminal peptide) (PSI (0-1 scale)); higher = more stable (slower turnover)
# conditionDetails: genetic background: wild type; temperature: 30 C
property: protein stability index
Number only, no unit.

These solved cases illustrate the format of a correct answer.
* SLPAFPPNTFMP | 0.7
* RFFAVSLGGLEF | 0.687
* PVSALHLSLSCP | 0.698
* ELVRIVREEYRC | 0.685
* PSPVLLPPFVSP | 0.706
* VGSWVEVWGVIG | 0.687

As a next step, examine the sequence that follows.
Sample `SRVTGPGRADGT` — what was its protein stability index? 0.691

---

# Tested on: Saccharomyces cerevisiae
# assayNotes: protein stability index of tFT-peptide fusion (C-terminal peptide) (PSI (0-1 scale)); higher = more stable (slower turnover)
# conditionDetails: genetic background: das1 deletion; temperature: 37 C
property: protein stability index
Answer with a number only.

// worked examples, protein stability index included
• WSFYVVGRLLVN = 0.45
• IGILVTAVPVFD = 0.552
• LLGSRFVLIRSL = 0.621
• SLIVLRSIAVLD = 0.543
• DFWCIIVIFLFR = 0.393

Fill blank: measured protein stability index of the sequence `LAGVVWVVWCVG` is ____. 0.385

Consider the sequence `PRTTHTPLLIAS` and give its measured protein stability index. 0.662

What does the record list as protein stability index for `LLLRWWLYSCCP` ? 0.467

Query: protein stability index; subject: `PTAGFFGLLVLV` 0.439

So what does the record say about protein stability index for `FVFIFIRVFFFR` ? 0.308

Recorded protein stability index for `WLCVFVFGIFFV` , please? 0.289

Which protein stability index is reported for this sequence? `SFSIPILLLAFP` 0.409

Look up protein stability index: `FSCLCLCVATSG` 0.379

// returns reported protein stability index for input `WQGWFLSLCIWV` 0.404

Name the recorded protein stability index for `FILCGFSVVLIG` . 0.395

So what does the record say about protein stability index for `FLFWVLLVGCSF` ? 0.375

Any idea what protein stability index was measured for `VILYCSNVAVCS` ? 0.426

For the sequence shown here, `LVRGGLTNLFLF` , give the reported protein stability index. 0.783

Param item = `EGLDVRILIQVI` ; retrieve measured protein stability index. 0.197

# get_value(readout='protein stability index', item= `LVFPPVPSLVLC` ) 0.376

Would you kindly share the measured protein stability index for `EWVWVVFSCVSW` ? 0.435

Entry `IVRDTECGIFYR` has what protein stability index? 0.735
